Tested on: E. coli TK-111
assay.procedure: Antibacterial activity (MIC), agar dilution
Format: cell-based
experimental.setup: Escherichia coli, TK111, 20 h, E. coli TK-111; 10^6 cells per ml; 37° C., 20 hours; read-out: MIC
reported.property: MIC (µg/mL)

compound	qualifier	readout.number
O=C(O)c1cn(-c2ccc(O)cc2)c(-c2ccc(-c3ccc(Cl)s3)cc2)cc1=O	=	0.1
COc1ccc(-c2ccc(-c3cc(=O)c(C(=O)O)cn3-c3ccc(O)cc3)cc2)s1	=	0.1
CC1Cc2cc(-c3cc(=O)c(C(=O)O)cn3-c3ccc(O)cc3)ccc2O1 (stereo not shown)	=	0.78
COc1ccc(-c2cc(=O)c(C(=O)O)cn2-c2ccc(O)cc2C)cc1F	≤	0.05
O=C(O)c1cn(-c2ccc(O)cc2)c(-c2ccc(-c3ccccn3)s2)cc1=O	≤	0.05
Cc1nc2cc(-c3cc(=O)c(C(=O)O)cn3-c3ccc(O)cc3)ccc2s1	=	0.1
CN1CCOc2cc(-c3cc(=O)c(C(=O)O)cn3-c3ccc(O)cc3)ccc21	=	0.2
O=C(O)c1cn(-c2ccc(O)cc2)c(-c2ccc(-n3cccc3)cc2)cc1=O	≤	0.05
O=C(O)c1cn(-c2ccc(O)cc2)c(-c2ccc3cccnc3c2)cc1=O	=	0.39
COc1ccc(-c2cc(=O)c(C(=O)O)cn2-c2ccc(F)cc2)cc1	=	0.78

---

System: Pro. vulgaris GN3027
assay.procedure: Antibacterial activity (MIC), agar dilution
Type: cell-based
experimental.setup: Proteus vulgaris, GN3027, 20 h, Pro. vulgaris GN3027; 10^6 cells per ml; 37° C., 20 hours; read-out: MIC
Source text: The amount of bacteria inoculated was 10^4 cells per plate (10^6 cells per ml).
reported.property: MIC (µg/mL)

molecule	target.of.assay	reported.property	qualifier	readout.number
CN(C)c1ccc(-c2cc(=O)c(C(=O)O)cn2-c2cccc3c(O)cccc23)cc1	Pro. vulgaris GN3027	MIC	=	1.56
CC(=O)Oc1ccc(-n2cc(C(=O)OCC(O)CO)c(=O)cc2-c2ccc(N(C)C)cc2)cc1 (centres unmarked)	Pro. vulgaris GN3027	MIC	=	0.78
O=C(O)c1cn(-c2ccc(O)cc2)c(-c2ccc(-c3ccccc3)cc2)cc1=O	Pro. vulgaris GN3027	MIC	=	0.2
Cc1nc(-c2ccc(-c3cc(=O)c(C(=O)O)cn3-c3ccc(O)cc3C)cc2)co1	Pro. vulgaris GN3027	MIC	=	0.39
O=C(O)c1cn(-c2ccc(F)cc2)c(-c2ccc(Cl)s2)cc1=O	Pro. vulgaris GN3027	MIC	=	0.39
Cc1cc(O)ccc1-n1cc(C(=O)O)c(=O)cc1-c1ccc2c(c1)NCCN2C	Pro. vulgaris GN3027	MIC	=	0.78
CN(C)c1ccc(-c2cc(=O)c(C(=O)O)cn2-c2ccc(F)cc2F)cc1	Pro. vulgaris GN3027	MIC	=	0.2
O=C(O)c1cn(-c2ccc(O)cc2)c(-c2ccc3cccnc3c2)cc1=O	Pro. vulgaris GN3027	MIC	=	0.39
COc1ccc(-c2ccc(-c3cc(=O)c(C(=O)O)cn3-c3ccc(O)cc3)s2)cc1	Pro. vulgaris GN3027	MIC	=	0.2
Cc1ccc(-c2cc(=O)c(C(=O)O)cn2-c2ccc(F)cc2)s1	Pro. vulgaris GN3027	MIC	=	0.2
O=C(O)c1cn(-c2ccc(F)cc2)c(-c2sccc2-c2ccc([N+](=O)[O-])cc2)cc1=O	Pro. vulgaris GN3027	MIC	=	0.39
O=C(O)c1cn(-c2ccc(O)cc2)c(-c2ccc(-c3cccs3)cc2)cc1=O	Pro. vulgaris GN3027	MIC	≤	0.05
O=C(O)c1cn(-c2ccc(O)cc2)c(-c2ccc(N3CCCC3)cc2)cc1=O	Pro. vulgaris GN3027	MIC	=	0.2
CN1CCOc2cc(-c3cc(=O)c(C(=O)O)cn3-c3ccc(O)cc3F)ccc21	Pro. vulgaris GN3027	MIC	=	0.39
CN(C)c1ccc(-c2cc(=O)c(C(=O)O)cn2-c2ccc(OS(=O)(=O)O)cc2)cc1	Pro. vulgaris GN3027	MIC	=	1.56
COCOC(=O)c1cn(-c2ccc(O)cc2)c(-c2ccc(N(C)C)cc2)cc1=O	Pro. vulgaris GN3027	MIC	=	0.39
O=C(O)c1cn(-c2ccc(O)cc2)c(-c2ccc(-c3ccc(Cl)s3)cc2)cc1=O	Pro. vulgaris GN3027	MIC	≤	0.1
Cc1cc(O)ccc1-n1cc(C(=O)O)c(=O)cc1C1CCCCC1 [drawing 12]	Pro. vulgaris GN3027	MIC	=	0.2
CC(=O)Oc1ccc(-n2cc(C(=O)O)c(=O)cc2-c2ccc(N(C)C)cc2)c(C)c1	Pro. vulgaris GN3027	MIC	=	0.39
O=C(O)c1cn(-c2ccc(O)cc2)c(-c2ccc3occc3c2)cc1=O	Pro. vulgaris GN3027	MIC	≤	0.05
